# Test: Part 3: effect of CYP1A2 inhibitor fluvoxamine on avadomide PK
# Format: in vivo, human (healthy adult subjects)
# Run Parameters: human, plasma, po, 3 mg
Measured Endpoint: half-life (h)

{"Molecule": "Cc1nc2cccc(N)c2c(=O)n1C1CCC(=O)NC1=O (stereo not shown) [Avadomide]", "Measured Endpoint": "half-life", "Unit Annotation": "h", "Reported Measurement": 9.16}

----------
# Test: Part 2: effect of CYP3A inhibitor itraconazole on avadomide PK
# Assay type: in vivo, human (healthy adult subjects)
# Run Parameters: human, plasma, po, 3 mg

{"Compound": "Cc1nc2cccc(N)c2c(=O)n1C1CCC(=O)NC1=O (stereo not shown) [Avadomide]", "Unit Annotation": "ng·h/mL", "AUC(0-inf)": 708}

----------
# Test: Part 3: effect of CYP1A2 inhibitor fluvoxamine on avadomide PK
# Type: in vivo, human (healthy adult subjects)
# Run Parameters: human, plasma, oral, 3 mg, Cmax, Geometric LS Means, avadomide alone, Part 3, N 19, ANOVA
Measured Endpoint: Cmax (ng/mL)

{"Compound": "Cc1nc2cccc(N)c2c(=O)n1C1CCC(=O)NC1=O (stereo not shown) [Avadomide]", "Measured Endpoint": "Cmax", "Unit Annotation": "ng/mL", "Reported Measurement": 70.2}

----------
# Test: Part 3: effect of CYP1A2 inhibitor fluvoxamine on avadomide PK
# Type: in vivo, human (healthy adult subjects)
# Run Parameters: human, plasma, oral, AUC0-inf, Geometric LS Means, avadomide + fluvoxamine, N 18, ANOVA

{"Compound": "Cc1nc2cccc(N)c2c(=O)n1C1CCC(=O)NC1=O (stereo not shown) [Avadomide]", "AUC(0-inf), ng·h/mL": 1100}

----------
# Test: Part 3: effect of CYP1A2 inhibitor fluvoxamine on avadomide PK
# Assay type: in vivo, human (healthy adult subjects)
# Run Parameters: human, plasma, oral

{"Molecule": "Cc1nc2cccc(N)c2c(=O)n1C1CCC(=O)NC1=O (stereo not shown) [Avadomide]", "Vd/F": "54.3 L"}

----------
# Test: Part 4: effect of CYP3A4 inducer rifampin on avadomide PK
# Assay type: in vivo, human (healthy adult subjects)
# Run Parameters: human, plasma, po, 3 mg
Measured Endpoint: Vd/F (L)

{"Compound": "Cc1nc2cccc(N)c2c(=O)n1C1CCC(=O)NC1=O (stereo not shown) [Avadomide]", "Unit Annotation": "L", "Reported Measurement": 55}
